tested on: NOMO1; test: cell viability relative to DMSO control; higher = less cytotoxic; details: RPMI 5 mM glucose + 10% FBS; 48 h; 5.12 µM
Lab note - cut at 20% for cell viability: satisfied if strictly below, not satisfied if not.

Consider the worked cases shown below.
>>> assigned_class("C[N+](C)([O-])CCNc1ccc(NCC[N+](C)(C)[O-])c2c1C(=O)c1c(O)ccc(O)c1C2=O")
"not satisfied"
>>> assigned_class("COc1cc(-c2nn(C3CCC(N4CCN(C(C)=O)CC4)CC3)c3ncnc(N)c23)ccc1NC(=O)c1cc2ccccc2n1C (stereo not drawn)")
"not satisfied"
>>> assigned_class("COC1=CC=C(C=C1)C2CC(=N/N2C3=CC=C(C=C3)[S+](N)([O-])=O)\\C4=CC=CC=C4 (stereo not drawn)")
"not satisfied"
>>> assigned_class("CC(C)c1ccccc1Cc1cc(C(=O)Nc2ccc([S+](=O)([O-])c3ccccc3C(C)(C)C)cc2)c(O)c(O)c1O")
"not satisfied"

Threshold test, cell viability < 20%: `CC[C@@]1(O)C[C@H](O[C@H]2C[C@H](N(C)C)[C@H](O[C@H]3C[C@H](O)[C@H](O[C@H]4CCC(=O)[C@H](C)O4)[C@H](C)O3)[C@H](C)O2)c2c(cc3c(c2O)C(=O)c2c(O)cccc2C3=O)[C@H]1C(=O)OC`
not satisfied

Is it true that cell viability reported for `CN(C)CCN(Cc1ccc(Cl)cc1)c1ccccn1.Cl` is less than 20%?
not satisfied

Could you please tell me whether cell viability recorded for `COc1cccc2c1C(=O)c1c(O)c3c(c(O)c1C2=O)C[C@@](O)(C(C)=O)C[C@@H]3O[C@H]1C[C@H](N)[C@H](O)[C@H](C)O1` is less than 20%?
satisfied

For this molecule, is cell viability lower than 20%? `CN[C@@H]1C[C@H]2O[C@@](C)([C@@H]1OC)n1c3ccccc3c3c4c(c5c6ccccc6n2c5c31)C(=O)N[C@H]4O`
satisfied

Does the reported cell viability of `CC(C)C[C@H](NC(=O)[C@H](Cc1ccccc1)NC(=O)c1cnccn1)B(O)O` stay below 20%?
satisfied

I'd appreciate it if you could check whether `CCOC1=CC(=CC=C1C/2=N/[C@@](C)(C3=CC=C(Cl)C=C3)[C@](C)(N2C(=O)N4CCN(CC4)CC(=O)N5CCOCC5)C6=CC=C(Cl)C=C6)C(C)(C)C` has cell viability smaller than 20%.
not satisfied

Consider `Cc1ccc(-c2ncn(-c3ccc(Nc4nccc(-c5cccc(N6CCOCC6)c5)n4)cc3)n2)cn1` . Does its cell viability lie strictly below 20%?
satisfied

I'd appreciate it if you could check whether `COc1cc(N[S+](=O)([O-])c2ccc(N)cc2)nc(OC)n1` has cell viability smaller than 20%.
not satisfied

Value source: the supplement of paper PMC11451515
